- MEASURED_TARGET: αIIb (INTEGRIN, ALPHA 2B; PLATELET GLYCOPROTEIN IIB OF IIB/IIIA COMPLEX, ANTIGEN CD41) (human) (UniProt P08514)
- TEST_NAME: αIIb complexes captured, mass spectrometry; No. Expts 1
# #Peptides >= 6 peptides gives Satisfied, anything below gives Not satisfied

Ask | Form field: #Peptides at least 6 peptides? Entry: MYELOPEROXIDASE (from UniProt P05164 165-745)
Reply | Not satisfied

Ask | Form field: #Peptides at least 6 peptides? Entry: KINESIN FAMILY MEMBER 14 (from UniProt Q15058 1-1648)
Reply | Satisfied

---

- MEASURED_TARGET: αIIb (INTEGRIN, ALPHA 2B; PLATELET GLYCOPROTEIN IIB OF IIB/IIIA COMPLEX, ANTIGEN CD41) (human) (UniProt P08514)
- TEST_NAME: αIIb complexes captured, mass spectrometry; No. Expts 1
Kindly state #Peptides for each of the entries shown.
One number for each entry, in peptides.

Answered cases to consult:
LECTIN, MANNOSE-BINDING, 1 (from UniProt P49257 31-510) : 16
ADP-… GLUCOKINASE (from UniProt Q9BRR6 23-497) : 9
ATP SYNTHASE, H+ TRANSPORTING, MITOCHONDRIAL F1 COMPLEX, ALPHA SUBUNIT 1, CARDIAC MUSCLE (from UniProt P25705 44-553) : 2

I'm hoping you can list #Peptides for every substance here, please.
1. SERPINE1 MRNA BINDING PROTEIN 1 (from UniProt Q8NC51 2-408)
2. CHD9 (HYPOTHETICAL PROTEIN BC022889) (from UniProt Q3L8U1 1-2897)
3. AMINOLEVULINATE, DELTA-, … (from UniProt P13716 1-330)
4. CHAPERONIN CONTAINING TCP1, SUBUNIT 4 (DELTA) (from UniProt P50991 2-539)
5. … CYCLASE 6 (from UniProt O43306 1-1168)

Reply |
1. 6
2. 7
3. 8
4. 8
5. 4

---

- MEASURED_TARGET: αIIb (INTEGRIN, ALPHA 2B; PLATELET GLYCOPROTEIN IIB OF IIB/IIIA COMPLEX, ANTIGEN CD41) (human)
- TEST_NAME: αIIb complexes captured, mass spectrometry; No. Expts 1
ASSAY_METRIC: #Peptides (peptides)
Give bare numbers, in peptides.

CYCLIN B2 (from UniProt O95067 1-398) : 2

I'm hoping you can list #Peptides for every substance here, please.
1. HOMER HOMOLOG 3 (DROSOPHILA) (from UniProt Q9NSC5 1-361)
2. KIAA0895 PROTEIN (from UniProt Q8NCT3 1-520)
3. LOC731751 (UNKNOWN PROTEIN)
4. FERM AND PDZ DOMAIN CONTAINING 1 (from UniProt Q5SYB0 1-1578)

Reply |
1: 1; 2: 3; 3: 15; 4: 4

---

- MEASURED_TARGET: αIIb (INTEGRIN, ALPHA 2B; PLATELET GLYCOPROTEIN IIB OF IIB/IIIA COMPLEX, ANTIGEN CD41) (human)
- TEST_NAME: αIIb complexes captured, mass spectrometry; No. Expts 1
Kindly state log10 of #Peptides for each of the entries shown.
Plainly stated, the numbers are log10 of #Peptides given in peptides.

Answered cases to consult:
AMINOACYLASE 1-LIKE 2 (from UniProt Q8IYS1 1-436) : 1.11
PROTEIN KINASE, AMP-…, GAMMA 1 NON-… SUBUNIT (from UniProt P54619 1-331) : 1.08
MITOGEN-… PROTEIN KINASE KINASE KINASE 7 … PROTEIN 2 (from UniProt Q9NYJ8 1-693) : 0.30
SPLICING FACTOR 1 (from UniProt Q15637 2-639) : 0.60
SEMENOGELIN I (from UniProt P04279 24-462) : 0.48
HETEROGENEOUS NUCLEAR RIBONUCLEOPROTEIN H1 (from UniProt P31943 1-449) : 0.95
MALIC ENZYME 2, NAD(+)-…, MITOCHONDRIAL (from UniProt P23368 19-584) : 1.30
TUBULIN, BETA 4 (from UniProt P04350 1-444) : 1.15

I'm hoping you can list log10 of #Peptides for every substance here, please.
1. PROTEIN KINASE, AMP-…, BETA 1 NON-… SUBUNIT (from UniProt Q9Y478 2-270)
2. ZINC FINGER PROTEIN 300 (from UniProt Q96RE9 1-604)
3. ZINC FINGER PROTEIN 703 (from UniProt Q9H7S9 2-590)
4. CASEIN KINASE 2, ALPHA PRIME PO… (from UniProt P19784 1-350)
5. CHAPERONIN CONTAINING TCP1, SUBUNIT 7 (ETA) (from UniProt Q99832 1-543)

Reply |
1. 0.95
2. 0.48
3. 0.30
4. 0.48
5. 1.04

---

- MEASURED_TARGET: αIIb (INTEGRIN, ALPHA 2B; PLATELET GLYCOPROTEIN IIB OF IIB/IIIA COMPLEX, ANTIGEN CD41) (human) (UniProt P08514)
- TEST_NAME: αIIb complexes captured, mass spectrometry; No. Expts 3
Kindly state #Peptides for each of the entries shown.
One number for each entry, in peptides.

Answered cases to consult:
PLASMINOGEN (from UniProt P00747 20-810) : 22
SHROOM3 F-ACTIN BINDING PROTEIN (from UniProt Q8TF72 1-1996) : 7
GLUTAMATE DEHYDROGENASE 1 (from UniProt P00367 54-558) : 83

Quick note, #Peptides for THIOREDOXIN DOMAIN CONTAINING 4 (ENDOPLASMIC RETICULUM) (from UniProt Q9BS26 30-406) landed at 20

---

- MEASURED_TARGET: αIIb (INTEGRIN, ALPHA 2B; PLATELET GLYCOPROTEIN IIB OF IIB/IIIA COMPLEX, ANTIGEN CD41) (human) (UniProt P08514)
- TEST_NAME: αIIb complexes captured, mass spectrometry; No. Expts 1
Kindly state #Peptides for each of the entries shown.
Give bare numbers, in peptides.

Answered cases to consult:
HYPOTHETICAL PROTEIN FLJ22184 : 4
EUKARYOTIC ELONGATION FACTOR-2 KINASE (from UniProt O00418 2-725) : 4
PYRUVATE KINASE, MUSCLE (from UniProt P14618 2-531) : 13

I'm hoping you can list #Peptides for every substance here, please.
1. ALPHA-2-MACROGLOBULIN (from UniProt P01023 24-1474)
2. PRE-MRNA CLEAVAGE FACTOR I, 59 kDa SUBUNIT (from UniProt Q8N684 1-471)
3. TRANSLOCASE OF INNER MITOCHONDRIAL MEMBRANE 50 HOMOLOG (from UniProt Q3ZCQ8 45-353)
4. KERATIN 16 (FOCAL NON-EPIDERMOLYTIC PALMOPLANTAR KERATODERMA) (from UniProt P08779 1-473)

Reply |
2
6
4
28

Quick note, #Peptides for ISOCITRATE DEHYDROGENASE 3 (NAD+) ALPHA (from UniProt P50213 28-366) landed at 5

---

- MEASURED_TARGET: αIIb (INTEGRIN, ALPHA 2B; PLATELET GLYCOPROTEIN IIB OF IIB/IIIA COMPLEX, ANTIGEN CD41) (human) (UniProt P08514)
- TEST_NAME: αIIb complexes captured, mass spectrometry; No. Expts 2
ASSAY_METRIC: #Peptides (peptides)
Give bare numbers, in peptides.

Answered cases to consult:
ALDEHYDE DEHYDROGENASE 18 FAMILY, MEMBER A1 (from UniProt P54886 1-795) : 16
TUBULIN, BETA (from UniProt P07437 1-444) : 52
HEAT SHOCK 70 kDa PROTEIN 8 (from UniProt P11142 2-646) : 11

I'm hoping you can list #Peptides for every substance here, please.
1. HETEROGENEOUS NUCLEAR RIBONUCLEOPROTEIN L (from UniProt P14866 1-589)
2. FILAMIN A, ALPHA (ACTIN BINDING PROTEIN 280) (from UniProt P21333 2-2647)

Reply |
[26, 14]
